Molecular target: 5HT-Transporter (Homo sapiens, UniProt P31645)
Construct: Human platelet membranes (Oceanix Biosciences Corporation, Hanover, Md., USA) were thawed; tissue Oceanix Biosciences Corporation, Hanover, Md., USA; host or cells: human platelet membranes
Sequence (P31645 whole entry): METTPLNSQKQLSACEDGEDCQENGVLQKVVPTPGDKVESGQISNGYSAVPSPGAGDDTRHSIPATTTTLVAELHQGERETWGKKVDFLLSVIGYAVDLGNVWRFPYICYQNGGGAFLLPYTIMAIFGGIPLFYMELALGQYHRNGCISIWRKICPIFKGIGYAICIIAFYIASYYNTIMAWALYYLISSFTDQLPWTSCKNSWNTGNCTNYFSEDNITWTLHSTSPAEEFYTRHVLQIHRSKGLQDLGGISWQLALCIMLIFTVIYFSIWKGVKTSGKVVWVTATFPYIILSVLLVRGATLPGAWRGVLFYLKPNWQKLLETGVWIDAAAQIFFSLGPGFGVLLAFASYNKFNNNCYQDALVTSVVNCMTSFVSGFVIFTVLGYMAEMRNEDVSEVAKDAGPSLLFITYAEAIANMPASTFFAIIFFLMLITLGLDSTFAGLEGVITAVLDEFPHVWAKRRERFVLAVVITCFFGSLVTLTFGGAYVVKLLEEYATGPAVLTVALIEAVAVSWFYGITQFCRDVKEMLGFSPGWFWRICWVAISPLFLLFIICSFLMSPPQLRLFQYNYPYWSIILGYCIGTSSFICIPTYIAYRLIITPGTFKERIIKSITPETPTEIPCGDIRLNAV
Assay: Binding experiment for the 5HT-transporter ([3H]paroxetine, human platelet membranes)
Details: [3H]paroxetine 0.5 nM, read-out: h-5HTT pIC50 (converted)
readoutType: IC50 (nM)

Worked examples, 5 molecules total:
C/C(=C\c1ccccc1)CN1CCC(Nc2nccn(CC#CCN3C(=O)c4ccccc4C3=O)c2=O)CC1 [2-54] : 50.1
C/C(=C\c1ccccc1)CN1CCC(Nc2nccn(-c3ccc(N4CCCCC4)cc3)c2=O)CC1 [2-7] : 1260
C/C(=C\c1ccccc1)CN1CCC(Nc2nccn(CC(=O)N(C)CCO)c2=O)CC1 : 2510
C/C(=C\c1ccccc1)CN1CCC(Nc2nccn(Cc3ccccc3-c3ccccc3)c2=O)CC1 : 200
COc1cccc(Cn2ccnc(NC3CCN(C/C(C)=C/c4ccccc4)CC3)c2=O)c1 : 794

I. C/C(=C\c1ccccc1)CN1CCC(Nc2nccn(CC(=O)N(CCN3CCCC3C)Cc3ccc(F)cc3)c2=O)CC1 (centres unmarked)
II. COC(=O)c1cccc(Cn2ccnc(NC3CCN(C/C(C)=C/c4ccccc4)CC3)c2=O)c1
Exercise: Please indicate which has the smaller reported IC50: I , or II . Your answer should be the label attached to the chosen record.
Solution: II
(II: 501 nM, I: 1260 nM)
